test system: sicklepod (Cassia obtusifolia, CASOB); test: Post-emerge test, greenhouse herbicide activity screening; format: in vivo; settings: Rate 250 g ai/ha; rating scale 0-100 (0 no damage, 100 complete death); 14 days after application
Reported Post-emerge Herbicidal Activity, phytotoxicity rating CASOB values for a set of compounds
result type: Post-emerge Herbicidal Activity, phytotoxicity rating CASOB

* COc1c(Cl)cc(F)c(-n2c(=O)cc(C(F)(F)F)n(C)c2=O)c1CC(Cl)C(=O)OCC(Br)CBr (single isomer, unassigned) [14-31] | 50
* CCCOC(=O)C(Cl)Cc1c(OC)c(Cl)cc(F)c1-n1c(=O)cc(C(F)(F)F)n(C)c1=O (single isomer, unassigned) [14-6] | 100
* CCCCOC(=O)C(Cl)Cc1c(OC)c(Cl)cc(F)c1-n1c(=O)cc(C(F)(F)F)n(C)c1=O (single isomer, unassigned) [14-9] | 0

###

Pre-emerge Herbicidal Activity, phytotoxicity rating (0-100), CHEAL for assorted molecules
system: lambsquarters (Chenopodium album, CHEAL); assay: Pre-emerge test, greenhouse herbicide activity screening; assay type: in vivo; details: 63 g ai/ha; rated 14 days after application; 0 = no damage, 100 = complete death
result type: Pre-emerge Herbicidal Activity, phytotoxicity rating (0-100), CHEAL

• COc1c(Cl)cc(F)c(-n2c(=O)cc(C(F)(F)F)n(C)c2=O)c1NC(=O)c1ccc(C)c(C)c1 [2-32] = 100
• COc1c(Cl)cc(F)c(-n2c(=O)cc(C(F)(F)F)n(C)c2=O)c1NC(=O)c1c(F)c(F)c(F)c(F)c1F [2-52] = 50
• COc1c(Cl)cc(F)c(-n2c(=O)cc(C(F)(F)F)n(C)c2=O)c1NC(=O)C(=O)c1ccccc1 [2-121] = 80
• COc1c(Cl)cc(F)c(-n2c(=O)cc(C(F)(F)F)n(C)c2=O)c1NC(=O)c1ccc(Cl)cc1Cl [2-58] = 100
• COc1c(Cl)cc(F)c(-n2c(=O)cc(C(F)(F)F)n(C)c2=O)c1N(C(=O)c1ccc(C(F)(F)F)cc1)C(=O)c1ccc(C(F)(F)F)cc1 [2-34] = 100
• COc1c(Cl)cc(F)c(-n2c(=O)cc(C(F)(F)F)n(C)c2=O)c1NC(=O)c1ccc(I)cc1 [2-66] = 100
• Cn1c(C(F)(F)F)cc(=O)n(-c2c(F)cc(Cl)c(OCC#N)c2NC(=O)CCc2ccccc2)c1=O [2-87] = 100
• COc1c(Cl)cc(F)c(-n2c(=O)cc(C(F)(F)F)n(C)c2=O)c1NC(=O)c1ccc(F)c(F)c1 [2-48] = 100
• COc1c(Cl)cc(F)c(-n2c(=O)cc(C(F)(F)F)n(C)c2=O)c1NC(=O)c1cnc2ccccc2n1 [2-105] = 100
• Cn1c(C(F)(F)F)cc(=O)n(-c2c(F)cc(Cl)c(OCC#N)c2N(C(=O)c2ccc(F)cc2F)C(=O)c2ccc(F)cc2F)c1=O [2-45] = 60
• Cn1c(C(F)(F)F)cc(=O)n(-c2c(F)cc(Cl)c(OC(F)F)c2NC(=O)c2ccc3ccccc3c2)c1=O [Compound 2-115] = 100
• COc1c(Cl)cc(F)c(-n2c(=O)cc(C(F)(F)F)n(C)c2=O)c1NC(=O)c1ccc(Cl)c(Cl)c1 [2-59] = 100
• COc1c(Cl)cc(F)c(-n2c(=S)cc(C(F)(F)F)n(C)c2=O)c1NC(=S)c1ccc(F)cc1F [2-46] = 100
• Cn1c(C(F)(F)F)cc(=O)n(-c2c(F)cc(Cl)c(O)c2NC(=O)c2ncccn2)c1=O [2-102] = 0
• COc1c(Cl)cc(F)c(-n2c(=O)cc(C(F)(F)F)n(C)c2=O)c1N(C(=O)c1ccc(F)c(F)c1)C(=O)c1ccc(F)c(F)c1 [2-49] = 100
• COc1c(Cl)cc(F)c(-n2c(=O)cc(C(F)(F)F)n(C)c2=O)c1NC(=O)c1cccnc1 [2-98] = 100
• COc1c(Cl)cc(F)c(-n2c(=O)cc(C(F)(F)F)n(C)c2=O)c1NC(=O)c1ccc(C(F)(F)F)cc1 [2-33] = 100
• COc1c(Cl)cc(F)c(-n2c(=O)cc(C(F)(F)F)n(N)c2=O)c1NC(=O)c1ccc2ccccc2c1 [2-77] = 90
• COc1c(Cl)cc(F)c(-n2c(=O)cc(C(F)(F)F)n(C)c2=O)c1NC(=O)C=Cc1ccccc1 [2-78] = 100
